Test system: panel of 140 standard cancer cell lines
Assay: ProliFiler-140 cancer cell line screen (CellTiterGlo, 72 h)
Format: cell-based
Conditions: Homo sapiens, CAKI-1, Caki-1 (Kidney); read-out: IC50 [M] (ProliFiler-140)

compound: COc1cccc2c1C(=O)c1c(O)c3c(c(O)c1C2=O)C[C@@](O)(C(=O)CO)C[C@@H]3O[C@H]1C[C@H](N)[C@H](O)[C@H](C)O1 [doxorubicin, reference compound]
IC50: 3.39e-07 M

---

Tested on: panel of 140 standard cancer cell lines
Assay: ProliFiler-140 cancer cell line screen (CellTiterGlo, 72 h)
Assay type: cell-based
Details: read-out: antiproliferative IC50 range, range over 140 cell lines
pIC50: −log10 of the molar value.

compound: COc1cc2cc(C(=O)N3C[C@@H](CCl)c4c3cc(OC(=O)N3CCN(C(=O)CCC(=O)N5CCN(C)CC5)[C@H]5CSSC[C@H]53)c3ccccc43)[nH]c2c(OC)c1OC [P-SS66C-CBI-TMI]
pIC50: 7.00 to 9.00
